From: paper PMC7504215

Assay: Hemolytic activity (adapted ASTM F 756-00)
Type: cell-based
Details: human red blood cells, 4 h at 37 °C, threshold 5% (ASTM F 756-00)
Experimental: The hemolytic activity of the compounds was determined using an adapted protocol of ASTM F 756–00 standard based on hemoglobin release from human red blood cells (hRBCs) resulting after cell lyses. […] After 15 min, the absorbance of the samples was read at 570 nm using a plate reader. […]
Property Name: hemolysis at 4 h, 25 µg/mL (%)
# number only, unit % dropped from output

Noted for Cc1cc(-c2ccccc2)nc2ncnn12 : its hemolysis at 4 h, 25 µg/mL reads 0.61
